Data provenance is patent US20240252488A1.

# Target Or System: MLKL (Homo sapiens, UniProt Q8NB16)
# Sequence (Q8NB16 whole entry): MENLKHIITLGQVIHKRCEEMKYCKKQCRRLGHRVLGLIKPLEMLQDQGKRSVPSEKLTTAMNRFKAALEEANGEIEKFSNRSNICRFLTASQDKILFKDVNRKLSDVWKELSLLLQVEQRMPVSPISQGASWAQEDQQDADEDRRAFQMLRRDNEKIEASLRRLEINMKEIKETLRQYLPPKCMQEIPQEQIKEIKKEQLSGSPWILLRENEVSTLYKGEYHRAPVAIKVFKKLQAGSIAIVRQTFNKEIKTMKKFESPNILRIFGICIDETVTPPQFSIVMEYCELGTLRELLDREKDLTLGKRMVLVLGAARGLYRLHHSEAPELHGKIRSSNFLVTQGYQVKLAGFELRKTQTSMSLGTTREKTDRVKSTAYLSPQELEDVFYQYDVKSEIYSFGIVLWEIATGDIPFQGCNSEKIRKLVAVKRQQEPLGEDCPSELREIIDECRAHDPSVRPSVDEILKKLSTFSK
# Assay: MLKL degradation assay in HepG2 cell line (western blot)
# Assay type: cell-based
# Parameters: endogenous in cells; host or cells: HepG2 or HaCaT
# Conditions: compound 10 μM; cell line not given
Measured Metric: Degradation assay (Degradation %) 10 μM
Return type: number; implicit unit %.

Completed entries (count: 2):
>  <Molecule>
Nc1ncc(-c2cnn(C3CCN(CC4CCN(C(=O)C5CN(c6cccc7c6C(=O)N(C6CCC(=O)NC6=O)C7=O)C5)CC4)CC3)c2)nc1C(=O)O[C@@H](C(=O)Nc1ccc(F)cc1)c1ccccc1 (stereo partly shown)

>  <Scale Unit>
%

>  <Degradation assay (Degradation %) 10 μM>
25.69

$$$$
>  <Molecule>
Nc1ncc(-c2cnn(C3CCN(C(=O)CCC4CCN(C(=O)CC5CCN(c6cccc7c6C(=O)N(C6CCC(=O)NC6=O)C7=O)CC5)CC4)CC3)c2)nc1C(=O)O[C@@H](C(=O)Nc1ccc(F)cc1)c1ccccc1 (stereo partly shown)

>  <Scale Unit>
%

>  <Degradation assay (Degradation %) 10 μM>
63.72

$$$$

Moving on to the next molecule.
Degradation assay (Degradation %) 10 μM value, target or system MLKL (Homo sapiens, UniProt Q8NB16), for Nc1ncc(-c2cnn(C3CCN(CCOC4CCN(C(=O)CNc5ccc6c(c5)C(=O)N(C5CCC(=O)NC5=O)C6=O)CC4)CC3)c2)nc1C(=O)OC(C(=O)Nc1ccc(F)cc1)c1ccccc1 (stereo not shown) : 71.54
